The reader will find pIC50 measurements below, all made with CDK6-CYCLIN D3 (Homo sapiens (Human), UniProt Q00534).
Sequence (Q00534 whole entry): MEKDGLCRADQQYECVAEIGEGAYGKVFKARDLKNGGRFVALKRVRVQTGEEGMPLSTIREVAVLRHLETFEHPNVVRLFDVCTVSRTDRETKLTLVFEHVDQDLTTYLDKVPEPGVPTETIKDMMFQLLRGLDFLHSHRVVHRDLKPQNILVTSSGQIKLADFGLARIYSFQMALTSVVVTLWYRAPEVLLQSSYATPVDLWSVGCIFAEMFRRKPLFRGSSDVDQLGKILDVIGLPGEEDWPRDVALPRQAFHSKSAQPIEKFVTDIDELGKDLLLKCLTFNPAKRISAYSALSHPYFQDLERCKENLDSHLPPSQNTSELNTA
Sequence (P30281 whole entry partner): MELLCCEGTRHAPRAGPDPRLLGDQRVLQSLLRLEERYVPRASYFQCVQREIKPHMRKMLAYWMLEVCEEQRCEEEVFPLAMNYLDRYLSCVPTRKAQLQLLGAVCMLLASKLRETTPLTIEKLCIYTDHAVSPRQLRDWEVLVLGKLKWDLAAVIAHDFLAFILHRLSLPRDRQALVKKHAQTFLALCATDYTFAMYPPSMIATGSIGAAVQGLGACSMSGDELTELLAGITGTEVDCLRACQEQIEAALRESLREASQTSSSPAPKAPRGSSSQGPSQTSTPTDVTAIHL
Give bare numbers, as −log10 of the molar value.

# Compound, pIC50
measured = [
    ("CC(C)n1c(C(C)(C)O)nc2c(F)cc(-c3nc(N[C@@H]4CCOC[C@H]4O)ncc3Cl)cc21 [Reference Compound, PF-07220060, reference compound]", 7.12),
]

Answer briefly: pIC50 recorded on CDK6-CYCLIN D3 (Homo sapiens (Human), UniProt Q00534) for "CC(C)n1c(C(C)(C)O)nc2c(F)cc(-c3nc(N[C@@H]4C[C@H]5CO[C@H](O5)[C@H]4O)ncc3Cl)cc21"
7.20

The measured values listed here are drawn from patent US20250084095A1.
